- Tested on: IL-13 induced STAT6 phosphorylation in BEAS-2B human lung epithelial cells
- assay.name: Cellular JAKI potency assay (BEAS-2B)
- Assay type: cell-based
- experimental.context: Homo sapiens, BEAS-2B, BEAS-2B cells, read-out: BEAS2B pIC50 (converted)
Each entry below carries its reported IC50.

Field: example entries. Status: answers known.
INSERT INTO assay_data (compound, result) VALUES
  ('CCc1cc(O)ccc1-c1ccc2c(-c3nc(C4=CCN(Cc5cn[nH]c5)C4)c[nH]3)n[nH]c2c1F [Example 145]', '10 to 31.6 nM'),
  ('CCc1cc(O)ccc1-c1ccc2c(-c3nc(C4=CCCN(C(=O)CN)C4)c[nH]3)n[nH]c2c1 [Example 164]', '10 to 31.6 nM'),
  ('CCc1cc(O)ccc1-c1ccc2c(-c3nc(C4=CCN(Cc5c[nH]nn5)C4)c[nH]3)n[nH]c2c1 [Example 144]', '10 to 31.6 nM'),
  ('CCc1cc(O)ccc1-c1ccc2c(-c3nc(C4=CCN(CC5CC5)C4)c[nH]3)n[nH]c2c1F [Example 290]', '3.16 to 10 nM'),
  ('CCc1cc(O)ccc1-c1ccc2c(-c3nc(C4=C[C@H](CO)N(CCCOC)C4)c[nH]3)n[nH]c2c1F [Example 272]', '3.16 to 10 nM'),
  ('CCc1cc(O)ccc1-c1ccc2c(-c3nc(C4=CCN(C5CCC5)CC4)c[nH]3)n[nH]c2c1F [Example 26]', '10 to 31.6 nM'),
  ('CCc1cc(O)ccc1-c1ccc2c(-c3nc(C4=CCCN(CCO)C4)c[nH]3)n[nH]c2c1F [Example 44]', '3.16 to 10 nM'),
  ('CCc1cc(O)ccc1-c1ccc2c(-c3nc(C4=CCN(C(=O)CN)CC4)c[nH]3)n[nH]c2c1F [Example 157]', '31.6 to 100 nM'),
  ('CCc1cc(O)ccc1-c1ccc2c(-c3nc(C4=CCCN(C(=O)c5ccccc5)C4)c[nH]3)n[nH]c2c1 [Example 163]', '31.6 to 100 nM'),
  ('CCOC[C@H]1C=C(c2c[nH]c(-c3n[nH]c4c(F)c(-c5ccc(O)cc5CC)ccc34)n2)CN1 [Example 307]', '10 to 31.6 nM');

Query compound follows.
Consider CCc1cc(O)ccc1-c1ccc2c(-c3nc(C4=CC[C@H](C)N(C5CCOCC5)C4)c[nH]3)n[nH]c2c1F [Example 268] . Its measured IC50 is 10 to 31.6 nM

====

- study.target: UniProtKB P23458
- assay.name: Biochemical JAK kinase assay (LanthaScreen), JAK1
- experimental.context: read-out: JAK1 pKi (converted)
Below, each of the molecules is paired with its reported Ki value.

Worked cases, answers included:
INSERT INTO assay_data (molecule, result) VALUES
  ('CCc1cc(O)c(C)cc1-c1ccc2c(-c3nc(C4=CCNCC4)c[nH]3)n[nH]c2c1F [Example 371]', '1 to 10 nM'),
  ('CCc1cc(O)ccc1-c1ccc2c(-c3nc(C4=CCC5(CNC5)OC4)c[nH]3)n[nH]c2c1 [Example 229]', '0.1 to 1 nM');

The molecule CCc1cc(O)ccc1-c1ccc2c(-c3nc(C4=CCN[C@@H](C)C4)c[nH]3)n[nH]c2c1F [Example 311] showed Ki equal to 0.1 to 1 nM

Lab book: Ki of CCc1cc(O)ccc1-c1ccc2c(-c3nc(C4=CCN(C[C@@H]5COCCN5)CC4)c[nH]3)n[nH]c2c1 [Compound 17] noted as 0.1 to 1 nM

====

- study.target: JAK1 (Homo sapiens (Human), UniProt P23458)
- Sequence (P23458 whole entry): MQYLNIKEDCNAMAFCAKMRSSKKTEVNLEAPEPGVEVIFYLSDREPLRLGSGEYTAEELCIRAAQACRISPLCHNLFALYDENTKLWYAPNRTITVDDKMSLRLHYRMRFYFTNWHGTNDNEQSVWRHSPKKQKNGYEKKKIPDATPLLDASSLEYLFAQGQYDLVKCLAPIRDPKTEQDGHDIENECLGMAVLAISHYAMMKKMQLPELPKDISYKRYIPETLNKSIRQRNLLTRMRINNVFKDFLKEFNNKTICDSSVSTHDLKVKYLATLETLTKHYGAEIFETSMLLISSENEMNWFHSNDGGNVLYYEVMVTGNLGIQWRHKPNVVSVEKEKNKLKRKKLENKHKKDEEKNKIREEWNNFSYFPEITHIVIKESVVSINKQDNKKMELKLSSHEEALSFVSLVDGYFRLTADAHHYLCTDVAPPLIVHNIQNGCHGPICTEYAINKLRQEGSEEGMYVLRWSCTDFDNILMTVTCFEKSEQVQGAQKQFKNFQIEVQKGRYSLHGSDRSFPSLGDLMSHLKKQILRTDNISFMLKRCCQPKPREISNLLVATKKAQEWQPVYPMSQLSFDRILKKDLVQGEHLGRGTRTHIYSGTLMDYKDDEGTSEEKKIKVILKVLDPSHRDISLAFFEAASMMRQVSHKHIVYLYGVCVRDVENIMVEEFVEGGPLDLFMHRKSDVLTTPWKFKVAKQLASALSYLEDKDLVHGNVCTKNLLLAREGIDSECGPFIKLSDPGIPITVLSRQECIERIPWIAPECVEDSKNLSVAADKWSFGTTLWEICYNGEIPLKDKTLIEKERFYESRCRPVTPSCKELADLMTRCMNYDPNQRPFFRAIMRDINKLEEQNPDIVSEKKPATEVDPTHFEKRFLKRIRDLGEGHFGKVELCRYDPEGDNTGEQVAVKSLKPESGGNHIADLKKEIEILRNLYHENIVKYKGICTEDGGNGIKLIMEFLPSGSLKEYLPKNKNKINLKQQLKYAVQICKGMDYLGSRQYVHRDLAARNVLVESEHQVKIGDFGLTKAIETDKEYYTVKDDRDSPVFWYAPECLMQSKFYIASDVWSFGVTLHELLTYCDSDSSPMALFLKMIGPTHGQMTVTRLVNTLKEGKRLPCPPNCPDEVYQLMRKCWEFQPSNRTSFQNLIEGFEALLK
- assay.name: Biochemical JAK kinase assay (LanthaScreen), JAK1
- experimental.context: read-out: JAK1 pKi (converted)
Below: a set of entries, each annotated with reported Ki.

Previously resolved entries follow.
INSERT INTO results (compound, study_target, result) VALUES
  ('CCc1cc(O)ccc1-c1ccc2c(-c3nc(C4=CCN(S(C)(=O)=O)CC4)c[nH]3)n[nH]c2c1 [Example 148]', 'JAK1 (Homo sapiens (Human), UniProt P23458)', '0.1 to 1 nM'),
  ('CCc1cc(O)ccc1-c1ccc2c(-c3nc(C4=CCN(CCN5CCCC5=O)CC4)c[nH]3)n[nH]c2c1F [Example 119]', 'JAK1 (Homo sapiens (Human), UniProt P23458)', '0.1 to 1 nM'),
  ('CCc1cc(O)ccc1-c1ccc2c(-c3nc(C4=CCNC(CC)C4)c[nH]3)n[nH]c2c1 (stereo not drawn) [Example 312]', 'JAK1 (Homo sapiens (Human), UniProt P23458)', '0.1 to 1 nM'),
  ('CCc1cc(O)ccc1-c1ccc2c(-c3nc(C4=CC(c5ccccc5)NC4)c[nH]3)n[nH]c2c1F (stereo not drawn) [Example 372]', 'JAK1 (Homo sapiens (Human), UniProt P23458)', '1 to 10 nM'),
  ('CCc1cc(O)ccc1-c1ccc2c(-c3nc(C4=CCN(C(=O)[C@H](CO)NC)C4)c[nH]3)n[nH]c2c1F [Example 385]', 'JAK1 (Homo sapiens (Human), UniProt P23458)', '0.1 to 1 nM'),
  ('CCc1cc(O)ccc1-c1ccc2c(-c3nc(C4=CCNC4C)c[nH]3)n[nH]c2c1F (stereo not drawn) [Example 313]', 'JAK1 (Homo sapiens (Human), UniProt P23458)', '0.1 to 1 nM'),
  ('CCc1cc(O)ccc1-c1ccc2c(-c3nc(C4=CCN(C(C)=O)C4)c[nH]3)n[nH]c2c1F [Example 171]', 'JAK1 (Homo sapiens (Human), UniProt P23458)', '0.1 to 1 nM'),
  ('CCc1cc(O)ccc1-c1ccc2c(-c3nc(C4=CCN(S(=O)(=O)C5CNC5)CC4)c[nH]3)n[nH]c2c1F [Example 178]', 'JAK1 (Homo sapiens (Human), UniProt P23458)', '1 to 10 nM');

So, CCc1cc(O)ccc1-c1ccc2c(-c3nc(C4=CCN(Cc5cn[nH]c5)CC4)c[nH]3)n[nH]c2c1F [Compound 11] ? Its Ki was 0.1 to 1 nM

Data point: CCc1cc(O)ccc1-c1ccc2c(-c3nc(C4=CCN(C(=O)CNCCOC)C4)c[nH]3)n[nH]c2c1F [Example 362] ; Ki = 0.1 to 1 nM

Looking up CCc1cc(O)ccc1-c1ccc2c(-c3nc(C4=CCN([C@H]5CC[C@](O)(C(F)(F)F)CC5)C4)c[nH]3)n[nH]c2c1F [Example 391] , I found its Ki recorded as 0.1 to 1 nM

Notebook: CCc1cc(O)ccc1-c1ccc2c(-c3nc(C4=CCN(CC(=O)NC(C)(C)C)CC4)c[nH]3)n[nH]c2c1F [Example 83] , Ki read as 1 to 10 nM

====

# IC50 per entry
- Test system: IL-13 induced STAT6 phosphorylation in BEAS-2B human lung epithelial cells
- assay.name: Cellular JAKI potency assay (BEAS-2B)
- Format: cell-based
- experimental.context: Homo sapiens, BEAS-2B, BEAS-2B cells, read-out: BEAS2B pIC50 (converted)

INSERT INTO results (compound, result) VALUES
  ('CCc1cc(O)ccc1-c1ccc2c(-c3nc(C4=CCN(C(C)=O)C4)c[nH]3)n[nH]c2c1', '3.16 to 10 nM'),
  ('CCc1cc(O)ccc1-c1ccc2c(-c3nc(C4=CCCN(Cc5ccccc5)C4)c[nH]3)n[nH]c2c1', '100 to 316 nM');

The reported IC50 of the compound `CCc1cc(O)ccc1-c1ccc2c(-c3nc(C4=C[C@H](C)NCC4)c[nH]3)n[nH]c2c1F` was 10 to 31.6 nM

Notebook: `CCc1cc(O)ccc1-c1ccc2c(-c3nc(C4=C[C@@H](CO)NC4)c[nH]3)n[nH]c2c1F` , IC50 read as 31.6 to 100 nM

Data point: `CCc1cc(O)ccc1-c1ccc2c(-c3nc(C4=CCN(C5CCN(C)CC5)C4)c[nH]3)n[nH]c2c1` ; IC50 = 3.16 to 10 nM

In plain terms, `CCc1cc(O)ccc1-c1ccc2c(-c3nc(C4=CCN(CCC(C)(C)O)C4)c[nH]3)n[nH]c2c1F` has a documented IC50 of 3.16 to 10 nM

====

- study.target: TYK2 (Homo sapiens (Human), UniProt P29597)
- Sequence (P29597 whole entry): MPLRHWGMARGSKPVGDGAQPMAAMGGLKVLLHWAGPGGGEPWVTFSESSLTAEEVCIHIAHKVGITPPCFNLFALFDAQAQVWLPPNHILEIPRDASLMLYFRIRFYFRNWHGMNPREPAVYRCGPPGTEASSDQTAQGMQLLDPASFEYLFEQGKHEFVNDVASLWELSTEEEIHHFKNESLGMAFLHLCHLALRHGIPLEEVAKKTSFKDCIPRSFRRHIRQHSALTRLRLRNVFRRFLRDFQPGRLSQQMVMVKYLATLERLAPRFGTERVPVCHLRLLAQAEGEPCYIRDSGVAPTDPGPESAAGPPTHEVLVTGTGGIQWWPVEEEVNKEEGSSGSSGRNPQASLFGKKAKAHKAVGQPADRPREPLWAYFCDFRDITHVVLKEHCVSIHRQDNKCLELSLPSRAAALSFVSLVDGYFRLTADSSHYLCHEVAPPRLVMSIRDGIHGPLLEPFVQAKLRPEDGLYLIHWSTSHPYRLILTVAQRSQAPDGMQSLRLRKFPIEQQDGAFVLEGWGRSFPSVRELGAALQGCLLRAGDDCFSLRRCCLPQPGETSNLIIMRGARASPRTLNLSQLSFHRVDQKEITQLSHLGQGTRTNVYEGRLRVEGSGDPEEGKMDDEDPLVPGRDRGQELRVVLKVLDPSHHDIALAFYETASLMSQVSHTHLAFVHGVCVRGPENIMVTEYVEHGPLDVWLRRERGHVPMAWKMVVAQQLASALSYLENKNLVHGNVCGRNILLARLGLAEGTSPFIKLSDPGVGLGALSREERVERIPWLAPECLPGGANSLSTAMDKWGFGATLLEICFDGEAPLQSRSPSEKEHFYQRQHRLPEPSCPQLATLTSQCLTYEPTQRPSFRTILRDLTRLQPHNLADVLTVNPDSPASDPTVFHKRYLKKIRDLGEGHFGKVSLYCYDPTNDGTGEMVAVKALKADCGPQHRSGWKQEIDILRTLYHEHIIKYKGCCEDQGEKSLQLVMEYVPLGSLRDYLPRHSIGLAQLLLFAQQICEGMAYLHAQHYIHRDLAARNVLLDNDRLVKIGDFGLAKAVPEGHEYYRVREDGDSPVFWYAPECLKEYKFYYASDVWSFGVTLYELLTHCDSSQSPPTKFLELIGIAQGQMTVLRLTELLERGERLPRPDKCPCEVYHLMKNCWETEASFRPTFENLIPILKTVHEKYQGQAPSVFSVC
- assay.name: Biochemical JAK kinase assay (LanthaScreen), Tyk2
- experimental.context: read-out: Tyk2 pKi (converted)
measured.parameter: Ki

INSERT INTO assay_data (compound_smiles, result) VALUES
  ('CCc1cc(O)ccc1-c1ccc2c(-c3nc(C4=CCCN(C5CCN(C)CC5)C4)c[nH]3)n[nH]c2c1', '1 to 10 nM');

Ki recorded for this molecule, `CCc1cc(O)ccc1-c1ccc2c(-c3nc(C4=CCN(S(=O)(=O)C5CNC5)C4)c[nH]3)n[nH]c2c1F` , is 10 to 100 nM

`CCCN1CC=C(c2c[nH]c(-c3n[nH]c4c(F)c(-c5ccc(O)cc5CC)ccc34)n2)CC1` has a reported Ki of 1 to 10 nM

Sample `CCc1cc(O)ccc1-c1ccc2c(-c3nc(C4=CCN(C5COC5)CC4)c[nH]3)n[nH]c2c1F` ; Ki observed: 1 to 10 nM

Notebook: `CCc1cc(O)ccc1-c1ccc2c(-c3nc(C4=CCN(C(=O)[C@@H](N)Cc5ccccc5)CC4)c[nH]3)n[nH]c2c1` , Ki read as 1 to 10 nM

Quick note, Ki for `CCc1cc(O)ccc1-c1ccc2c(-c3nc(C4=CCN(CCN(C)C)CC4)c[nH]3)n[nH]c2c1F` landed at 1 to 10 nM

Looking up `CCc1cc(O)ccc1-c1ccc2c(-c3nc(C4=CCN(C5CCCCC5)CC4)c[nH]3)n[nH]c2c1F` , I see its Ki listed as 1 to 10 nM

`CCc1cc(O)ccc1-c1ccc2c(-c3nc(C4=C(C)CNCC4)c[nH]3)n[nH]c2c1` has a reported Ki of 1 to 10 nM

Measured Ki, `CCc1cc(O)ccc1-c1ccc2c(-c3nc(C4=CCNCC4)c(C)[nH]3)n[nH]c2c1` : 0.1 to 1 nM
